experimentalDetails: yeast display, Sf9 membrane polyspecificity reagent, FACS + sequencing; frameworks hold sequencing errors
measurementLabel: polyreactivity (PSR sort gate)

In the examples that follow, each entry is paired with its recorded polyreactivity (PSR sort gate).
inputSequence | polyreactivity (PSR sort gate)
QVQLVESGGGLVQAGGSLRLSCAASGSTFASNVMGWYRQAPGKERELVAAISRSGGNTYYADSVKGRFTISRDNAKNSVYLQMNSLKPEDTAVYYCAKYPFTRISYDYWGQGTQVTVSS | high polyreactivity
QVQLVESGRGIVQAGGSLRLSCAASGRIFYLNAMGWYRQAPGKERELVAAITRSAASTHYADSVKGRFTISRDNAKNTVYVQMNSLKPEDTAVYYCAARFWYDYRHYDYWGQGTQVTVSS | low polyreactivity
QVQLVESGGGLVQAGGSLRLSCAASGSTFAQNAMGWYRQAPGKEREFVAAITGTVGSTYYADSVKGRFTISRDNAKNTVYLQMNSLKPEDTAVHYCAVVHVFYAVSYFSFYTYDYWGQGTQVTVSS | low polyreactivity
QVQLVESGGRLVQAGGSLRLSCAASGFTFNYNAMGWYRQAPGKERELVAAISRSGGSTYYADSVMGRFTISRDNAKNTFYLQMNSLKPEDTAVYYFAAVRDIGKYGYWGQGTQVTVSS | high polyreactivity
QVHLVASGGGLVQAGGSLRLRCAASGFTIDTYAKGWYRQAPGKERDLVAGISWSGGSTYYADSVKGRFTISRDNAKNTVYLQRNSLNPEDTAVYYCAADYAGYPGRTRQRPGYDYWGQGTQVTVSS | low polyreactivity
QVQLVESGGGLDQAGGSLRLSCAASVSNFEYYVMGWYRQAPGTERELVAVIRRSSGSTYYADSVKGRFTISRDNAKNTVYLQMNSLKPEDTAVYYCAARRYEPIIWHRMDYCGQGTQVTVSS | low polyreactivity

-- ask Please look up its polyreactivity (PSR sort gate): EVQLVESGGGLVHAGGSLRLICAASGFTFTGYTMGWYRQAPGKERELVATISGSGGNTYYADSVKGRFTISRDNAKNTVYLQINSVKPEDTAVYYCARLRSGPRVLYYYWGQGTQVTVSS
-- reply low polyreactivity

-- ask Similarly, QVQLVESGGGLVQAGGSLRLSCAASGSTFRRNAMGWYRQAPGKERELVAAITSTDSTYYADSVKGRFTISRDNAKNTVYLQMNSLKPEDTAVYYCAKGYWWGGEMGYWGQGSQVTVSS ?
-- reply low polyreactivity

-- ask Similarly, QVQLVESGGGLVQAGGSLRLSCAASGSTFWANAMGWYRPAPGKERELLAGITWNAGSTYYADSVKGRYTISRDNAKNNVYLQLNSLKPEDTAVYYCAAYYHFQGWGPGYNSCGQGTQVTVSS ?
-- reply low polyreactivity

-- ask Similarly, QVQLVESGGGLVQAGGSLRLSCAASGSIFGDYAMGWYRQAPGKEREFVAGITRRGGRTYYADSVKGRFTISRDNAKNTVYLQMHSLKPEDTAVYYCNAVYSSSLRSKYDYWGQGTQVTVSS ?
-- reply high polyreactivity

-- ask Similarly, QVQLVESGGGLVQAGGSLRLTCAASGRTFYLYAMGWYRQAPGKERELVAAITTSGGSTYYADSVKGRFTFSRDNAKNTVYLQMNSLKPEDTAVSYCNTDLSSTKFDYWGQGTQVTVSS ?
-- reply low polyreactivity

Cited source: the nanobody polyreactivity screen of Harvey et al. (2022)
